- System: Zika virus NS2B-NS3 protease (unlinked complex)
- methodNotes: Primary screen GU Rhodamine qHTS for Zika virus inhibitors: Unlinked NS2B-NS3 protease assay (AID 1347159); further: on the % scale 0 is the no-effect control and ±100 the full control effect; nearly all actives have a fitted effect of over 60% in size
- condition: Recombinant ZIKV NS2B-NS3 protease, Rhodamine110 substrate fluorescence; series mostly up to 107 µM
Inconclusive results are not listed. Activity calls are given as the source filed them. The call rests on the fitted dose curve; in most records, active means well fitted inhibition curve with a large enough effect; inconclusive means small, poorly fitted or top-dose-only effect; inactive means no such curve, though single readings can be large or run the other way.
Pick one and only one: active, inactive

input: Please state the recorded outcome for this compound: COc1cc(OC)c2c(=O)[nH]c(-c3cc(C)c(OCCO)c(C)c3)nc2c1
output: inactive

---

- methodNotes: Primary qHTS for inhibitors of nuclear receptor binding SET domain protein 2 (NSD2) in an RCH-ACV wild type WT cells (2C) (AID 1645877); further: nearly all actives have a fitted effect of over 70% in size
- condition: RCH-ACV (leukaemia line) NSD2 WT (2C) viability, CellTiter-Glo, 72 h; series mostly up to 44.9 µM
Results filed as inconclusive are left out. Calls of active or inactive are those of the source. Calls follow the shape of the dose curve; as a rule, active = well fitted inhibition curve with a large enough effect; inconclusive = small, poorly fitted or top-dose-only effect; inactive = no such curve, though single readings can be large or run the other way.
Outcome field: choose from True (active), False (inactive)

* O=S(=O)(c1ccccc1)N(CC(F)(F)F)c1ccc(C(O)(C(F)(F)F)C(F)(F)F)cc1 | True
* Nc1nc2c(nc(Br)n2[C@@H]2O[C@@H]3COP(=O)(O)O[C@H]3[C@H]2O)c(=O)[nH]1 | False
* CC(O)(C(=O)C1CC1(CO)COC1OC(CO)C(O)C(O)C1O)C1C(O)CC2C3CC=C4CC(O)CC(O)C4(C)C3C(O)CC21C (stereo not drawn) | True

input: Dear all, I need the recorded test outcome for O=c1cc(NCCCN[C@@H]2CCOc3c(Br)cc(Br)cc32)[nH]c2ccsc12 , thank you.
output: True

input: Fill in: this test's call for CCOC(=O)N1CCC(N2CCC[C@@H](NC(=O)c3ccccc3C)C2)CC1 is ___
output: False

---

- Tested on: HaCat
- methodNotes: Cytotoxic Profiling of Annotated Libraries Using Quantitative High-Throughput Screening (AID 1296008); further: nearly all actives have a fitted effect of over 60% in size
- condition: Five cell lines viability, CellTiter-Glo ATP luminescence, 48-72 h
Inconclusive results are not listed. Calls of active or inactive are those of the source. The call rests on the fitted dose curve; in most records, active means well fitted inhibition curve with a large enough effect; inconclusive means small, poorly fitted or top-dose-only effect; inactive means flat fitted curve, though single readings scatter.
Hi! Could you answer with just one of these? active, inactive

Solved cases (3 shown):
- C=C1C(=O)OC2/C=C(\C)CC/C=C(\C=O)C(OC)C(OC(=O)C(C)CC)C12 (centres undefined): inactive
- C=C[C@@]1(C)C=C2C(=O)C(O)=C3[C@](C)(C(=O)O)CC[C@@H]4C[C@]34[C@]2(O)C(=O)C1: active
- C=C1C(=O)OC2CC(C)C(CCC(C)=O)=CCC12 (centres undefined): inactive

input: // param item: NCCOc1cc(C(=O)Nc2cc(OCCN)c3ccccc3n2)nc(C(=O)Nc2cc(OCCN)c3ccccc3n2)c1 ; yields the recorded call
output: active

input: // outcome(item) with item = O=C(Nc1cccnc1)c1cc(-c2ccnc(F)c2)ccc1OCc1ccccc1
output: inactive

input: Name the outcome recorded for CC1OC2OC(=O)C3(C)CC4C5(CO5)C5=CC(=O)OC(C)(C)C5=CC(=O)C4(C)C(C1=O)C23 (centres undefined) in the assay.
output: inactive

input: Outcome logged for COc1ccc(C2=NC(c3ccc(Cl)cc3)C(c3ccc(Cl)cc3)N2C(=O)N2CCNC(=O)C2)c(OC(C)C)c1 (centres undefined) in this assay:
output: inactive

input: GET /call?item= CCCN(CCc1ccsc1)C1CCc2c(O)cccc2C1 (centres undefined) returns the recorded outcome of this test.
output: inactive

input: Could you kindly confirm the outcome this assay logged for CCCC(=O)C1(c2ccccc2)CCN(C(=O)[C@@H](Cc2ccc(OC)cc2)NC(=O)[C@@H](N)Cc2cncn2C)CC1 ?
output: inactive

input: Which outcome was assigned to O=C(NCc1ccc(OC(F)(F)F)cc1)C1c2c(F)cccc2C(=O)N1CCc1ccccn1 (centres undefined) in this test?
output: inactive

input: # lookup: test call for CCCN1CCC=C(c2cc(-c3ccc(C)cc3)no2)C1
output: inactive

input: Tell me the recorded outcome of this test for Cc1ccccc1C(C(=O)NC1CCCCC1)N(C(=O)Cn1cnc2ccccc21)c1cccc(F)c1 (centres undefined) .
output: active

input: Record lookup: outcome of this test for COc1ccccc1OCCNCC(O)CCOc1cccc2[nH]c3ccccc3c12 (centres undefined) ?
output: inactive

input: Outcome? COc1ccc([C@H](Cc2ccncc2)c2ccccc2)cc1OC1CCCC1
output: inactive

input: Called result for NC(=O)c1ccccc1Nc1ccnc(Nc2cccc(O)c2)n1
output: active

input: # fetch the recorded call for C=C1C(=O)O[C@@H]2/C=C(\CO)CC/C=C(/C=O)C[C@@H](O)[C@@H]12 here
output: active

input: Which outcome was assigned to Cc1cc(C)c(-n2cc(C)c3c(Cl)nc(C)nc32)c(C)c1 in this test?
output: inactive

input: Given CC(C)=C1C[C@@]2(C)C(=CC1=O)CC[C@@H](OC(=O)/C(C)=C/CO)[C@@H]2C , state the outcome it received in this test.
output: inactive

input: What was the test verdict on N#Cc1ccc(Nc2nc(-c3ccc(O)cc3O)cs2)cc1C(F)(F)F ?
output: active

---

- Tested on: astro
- methodNotes: Drug repurposing screens with cells derived from glioblastoma tumor samples (AID 1345199); further: nearly all actives have a fitted effect of over 40% in size
- condition: viability, ATP luminescence, 48 h; series mostly up to 45.9 µM
Inconclusive results are not listed. The source made the active and inactive calls. Calls follow the shape of the dose curve; as a rule, active = well fitted inhibition curve with a large enough effect; inconclusive = small, poorly fitted or top-dose-only effect; inactive = flat fitted curve, though single readings scatter.
Field 'call' accepts 1 (yes) for active, 0 (no) for inactive

• CC1(C)S[C@@H]2[C@H](NC(=O)C(C(=O)Oc3ccc4c(c3)CCC4)c3ccccc3)C(=O)N2[C@H]1C(=O)O (stereo partly specified) = 0 (no)
• O=C(CO)[C@@H](O)[C@H](O)[C@H](O)CO = 0 (no)
• CCC(=O)OCC(=O)[C@@]1(OC(=O)CC)[C@H](C)C[C@H]2[C@@H]3CCC4=CC(=O)C=C[C@]4(C)[C@@]3(F)[C@@H](O)C[C@@]21C = 0 (no)
• C=C[C@]1(C)C[C@@H](OC(=O)CO)[C@]2(C)[C@H](C)CC[C@]3(CCC(=O)[C@H]32)[C@@H](C)[C@@H]1O = 0 (no)
• C=CCNC1=C2C[C@@H](C)C[C@H](OC)[C@H](O)[C@@H](C)/C=C(\C)[C@H](OC(N)=O)[C@@H](OC)/C=C\C=C(/C)C(=O)NC(=CC1=O)C2=O = 1 (yes)
• CCCC(CCC)C(N)=O = 0 (no)

Alright, here's another compound for you.
input: Field: outcome | Entry: C=C1C(=C/C=C2\CCC[C@]3(C)[C@@H]([C@H](C)CCCC(C)(C)O)CC[C@@H]23)C[C@@H](O)C[C@@H]1O
output: 1 (yes)

---

- Tested on: Hek293T
- methodNotes: Primary qHTS to identify gynecologic anti-cancer compounds using libraries of approved drugs and bioactive compounds (AID 1345084); further: on the % scale 0 is the no-effect control and ±100 the full control effect; nearly all actives have a fitted effect of over 55% in size
- condition: Gynecologic cancer cell panel viability, ATPlite luminescence, 48 h, control line for the selectivity index; series mostly up to 57.5 µM
Records with an inconclusive call do not appear. Active and inactive are the calls of the source. Calls come from the whole dose curve; as a rule, active = well fitted cell-killing curve with a large enough effect; inconclusive = small, poorly fitted or top-dose-only effect, or effect the other way; inactive = flat fitted curve, though single readings scatter.
Would you mind answering with one of these outcomes? active, inactive

Please review the entries below; each comes with its answer.
- CC(=O)OC[C@]12[C@H](OC(C)=O)[C@H](OC(=O)c3ccccc3)[C@@H]3[C@@H](OC(C)=O)[C@]1(OC3(C)C)[C@H](C)C[C@H](OC(C)=O)[C@@H]2OC(=O)c1ccccc1: inactive
- COc1ccc2c(c1O[C@H]1CCNC1)CCC2: inactive
- CC(C)C[C@@H]1NC(=O)[C@@H](Cc2ccccc2)NC(=O)C(CCCCCC(=O)C2CO2)NC(=O)[C@@H]2CCCCN2C1=O (stereo partly drawn): inactive

input: Hey, what did the test say about CC(=O)O[C@H]1C[C@@](O)(C(C)C)[C@@H]2[C@@H](OC(=O)c3ccc(O)cc3)CC(C)=CC[C@@]12C ?
output: inactive

input: Recorded test call requested for O=C(NCCCN1CCC2(CC1)OCc1ccccc12)[C@H]1CCCN1Cc1ccccc1
output: inactive

---

Documented max response across a set of compounds
- Test system: KB-3-1
- methodNotes: Cytotoxic Profiling of Annotated Libraries Using Quantitative High-Throughput Screening (AID 1296008); further: nearly all actives have a fitted effect of over 60% in size; on max response: on the % scale 0 is the no-effect control and ±100 the full control effect
- condition: Five cell lines viability, CellTiter-Glo ATP luminescence, 48-72 h; active compounds read low
Inconclusive results are not listed. Calls of active or inactive are those of the source. Calls follow the shape of the dose curve; as a rule, active = well fitted inhibition curve with a large enough effect; inconclusive = small, poorly fitted or top-dose-only effect; inactive = flat fitted curve, though single readings scatter.

# annotated cases, reported max response shown
* Clc1ncoc1-c1c[nH]c2ccccc12 | 7.62% (inactive)
* COc1ccc(S(=O)(=O)n2cnc3cc(C)c(C)cc32)cc1 | -13.8% (inactive)
* O=C(Nc1cc(C(F)(F)F)ccc1N1CCCCC1)c1ccncc1 | -6.53% (inactive)

input: Fill blank: measured max response of the compound CCCn1cc2c(nc(NC(=O)Nc3ccc(OC)cc3)n3nc(-c4ccco4)nc23)n1 is ____.
output: 9% (inactive)

input: Please give the measured max response for this compound: CC[C@H](C(=O)Nc1ccccc1N1CCCC1)c1ccccc1
output: -2.95% (inactive)

input: Report max response for O=C(NC1CCC1)c1ccc(C#Cc2cccc(F)c2)nc1 please.
output: 8.07% (inactive)

input: Param item = COc1ccc(Sc2ccc(NC(=O)c3ccccc3Cl)cc2C#N)cc1 ; retrieve measured max response.
output: -1.86% (inactive)

input: // query max response value for entry CC(C)c1cc(-c2ccc(F)c3ccccc23)nc(N)n1
output: -2.32% (inactive)

input: Return reported max response; argument: C/C(=C(\CCOC(=O)c1ccccc1)SS/C(CCOC(=O)c1ccccc1)=C(/C)N(C=O)Cc1cnc(C)nc1N)N(C=O)Cc1cnc(C)nc1N
output: -12.4% (inactive)
